Taken from patent US10682371B2.

# System: Human prostate cancer PC-3 cells / Panc-1 cells
# run.description: Tumor treatment in nude mice (PC-3 cells purchased, Panc-1 cells injected; Examples 22, 32, 42)
# Type: in vivo
# condition.details: compared with parent drug group (same molar concentration) and control group
test.readout: Inhibition on tumor growth, in words

compound | target.system | test.readout | endpoint.result
COCCOCC(=O)N[C@H](C)C(=O)N[C@H](C)C(=O)N[C@H](CC(N)=O)C(=O)Nc1ccc(COC(=O)OC(C(=O)OC2C[C@@]3(O)C(OC(=O)c4ccccc4)[C@@H]4C5(OC(C)=O)COC5C[C@H](O)[C@@]4(C)C(=O)[C@H](OC(C)=O)C(=C2C)C3(C)C)[C@@H](NC(=O)c2ccccc2)c2ccccc2)cc1 (stereo in doubt) [S1′] | Human prostate cancer PC-3 cells / Panc-1 cells | Inhibition on tumor growth, in words | greatly improved
COCCOCCOCCOCCOCCOCC(=O)NCCCC[C@H](NC(=O)COCCOCCOCCOCCOCCOC)C(=O)N[C@H](C)C(=O)N[C@H](C)C(=O)N[C@H](CC(N)=O)C(=O)Nc1ccc(COC(=O)OC(C(=O)OC2C[C@@]3(O)[C@@H](OC(=O)c4ccccc4)[C@H]4[C@](C)(C(=O)[C@H](OC(C)=O)C(=C2C)C3(C)C)[C@@H](O)CC2OC[C@]24OC(C)=O)[C@@H](NC(=O)c2ccccc2)c2ccccc2)cc1 (stereo partly drawn) [Compound A2] | Human prostate cancer PC-3 cells / Panc-1 cells | Inhibition on tumor growth, in words | greatly improved
COCCOCCOCCOCCOCCOCC(=O)N[C@H](C)C(=O)N[C@H](C)C(=O)N[C@H](CC(N)=O)C(=O)Nc1ccc(COC(=O)OC(C(=O)OC2C[C@@]3(O)[C@@H](OC(=O)c4ccccc4)[C@H]4[C@](C)(C(=O)[C@H](OC(C)=O)C(=C2C)C3(C)C)[C@@H](O)CC2OC[C@]24OC(C)=O)[C@@H](NC(=O)c2ccccc2)c2ccccc2)cc1 (stereo partly drawn) [S2′] | Human prostate cancer PC-3 cells / Panc-1 cells | Inhibition on tumor growth, in words | greatly improved

====

# System: BALB/C mice
# run.description: Maximum tolerated dose (MTD) / acute toxicity by single intravenous injection
# condition.details: single intravenous injection, 125 mg/kg, 10 BALB/C mice per group
Listed here are compounds together with their documented Number of dead animal.
No unit in the answer, please; the number alone is enough.

Worked examples follow.
compound | target.system | endpoint.result
COCCOCC(=O)NCCCC[C@H](NC(=O)COCCOC)C(=O)N[C@H](C)C(=O)N[C@H](C)C(=O)N[C@H](CC(N)=O)C(=O)Nc1ccc(COC(=O)OC(C(=O)OC2C[C@@]3(O)[C@@H](OC(=O)c4ccccc4)[C@H]4[C@](C)(C(=O)[C@H](O)C(=C2C)C3(C)C)[C@@H](O)CC2OC[C@]24OC(C)=O)[C@@H](NC(=O)OC(C)(C)C)c2ccccc2)cc1 (some centres unmarked) | BALB/C mice | 0
COCCOCCOCCOCCOCCOCC(=O)NCCCC[C@H](NC(=O)COCCOCCOCCOCCOCCOC)C(=O)N[C@H](C)C(=O)N[C@H](C)C(=O)N[C@H](CC(N)=O)C(=O)Nc1ccc(COC(=O)OC(C(=O)OC2C[C@@]3(O)[C@@H](OC(=O)c4ccccc4)[C@H]4[C@](C)(C(=O)[C@H](OC(C)=O)C(=C2C)C3(C)C)[C@@H](O)CC2OC[C@]24OC(C)=O)[C@@H](NC(=O)c2ccccc2)c2ccccc2)cc1 (some centres unmarked) | BALB/C mice | 2

// query Quote Number of dead animal reported for COCCOCCOCCOCCOCCOCCOCCOCCOCCOCCOCCOCC(=O)NCCCC[C@H](NC(=O)COCCOCCOCCOCCOCCOCCOCCOCCOCCOCCOCCOC)C(=O)N[C@H](C)C(=O)N[C@H](C)C(=O)N[C@H](CC(N)=O)C(=O)Nc1ccc(COC(=O)OC(C(=O)OC2C[C@@]3(O)[C@@H](OC(=O)c4ccccc4)[C@H]4[C@](C)(C(=O)[C@H](OC(C)=O)C(=C2C)C3(C)C)[C@@H](O)CC2OC[C@]24OC(C)=O)[C@@H](NC(=O)c2ccccc2)c2ccccc2)cc1 (some centres unmarked) please.
// result 1

// query Please give the documented Number of dead animal of COCCOCC(=O)N[C@H](C)C(=O)N[C@H](C)C(=O)N[C@H](CC(N)=O)C(=O)Nc1ccc(COC(=O)OC(C(=O)OC2C[C@@]3(O)[C@@H](OC(=O)c4ccccc4)[C@H]4[C@](C)(C(=O)[C@H](O)C(=C2C)C3(C)C)[C@@H](O)CC2OC[C@]24OC(C)=O)[C@@H](NC(=O)OC(C)(C)C)c2ccccc2)cc1 (some centres unmarked) [Compound D1]
// result 0

// query Specify Number of dead animal for COCCOCC(=O)NCCCC[C@H](NC(=O)COCCOC)C(=O)N[C@H](C)C(=O)N[C@H](C)C(=O)N[C@H](CC(N)=O)C(=O)Nc1ccc(COC(=O)OC(C(=O)OC2C[C@@]3(O)[C@@H](OC(=O)c4ccccc4)[C@H]4[C@](C)(C(=O)[C@H](OC(C)=O)C(=C2C)C3(C)C)[C@@H](O)CC2OC[C@]24OC(C)=O)[C@@H](NC(=O)c2ccccc2)c2ccccc2)cc1 (some centres unmarked) and stop.
// result 0
